- assayDetails: qHTS of pediatric cancer cell lines to identify multiple opportunities for drug repurposing: Confirmatory screen for Saos-2 cells (AID 1347127); note: nearly all actives have a fitted effect of over 60% in size
- protocolConditions: Saos-2 osteosarcoma cell viability; series mostly up to 45.9 µM
Inconclusive results are not listed. Active and inactive are the calls of the source. Calls come from the whole dose curve; as a rule, active = well fitted cell-killing curve with a large enough effect; inconclusive = small, poorly fitted or top-dose-only effect, or effect the other way; inactive = no such curve, though single readings can be large or run the other way.
Outcomes: active, inactive

# molecule, categoryLabel
records = [
    ("Cc1ccc(C(=O)N(CCCN)[C@@H](c2nc3cc(Cl)ccc3c(=O)n2Cc2ccccc2)C(C)C)cc1", "active"),
    ("C[C@H](c1ccc(F)cc1CCCC(=O)O)N(c1cc(F)ccc1F)S(=O)(=O)c1ccc(Cl)cc1", "inactive"),
    ("CC(C)CN(C[C@H](O)[C@H](Cc1ccccc1)NC(=O)O[C@H]1CCOC1)S(=O)(=O)c1ccc(N)cc1", "inactive"),
    ("CC1=C(CC(=O)O)c2cc(F)ccc2C1=Cc1ccc(S(C)=O)cc1 (stereo not given)", "inactive"),
    ("Nc1ncnc2c1ncn2[C@@H]1O[C@H](CO)[C@@H](O)[C@@H]1O", "active"),
    ("CC1(C)OC2CC3C4CC(F)C5=CC(=O)C=CC5(C)C4C(O)CC3(C)[C@]2(C(=O)CO)O1 (stereo not given in full)", "inactive"),
    ("C[C@@H]1[C@H](O)[C@@H](C)C=CC=CC=CC=CC=CC=CC=C[C@H](O[C@@H]2O[C@H](C)[C@H](O)[C@H](N)[C@@H]2O)C[C@@H]2O[C@](O)(C[C@@H](O)C[C@@H](O)[C@H](O)CC[C@@H](O)C[C@@H](O)CC(=O)O[C@H]1C)C[C@H](O)[C@@H]2C(=O)O", "inactive"),
    ("CC(C)C[C@@H](C(=O)N[C@H](C(=O)OC1CCCC1)c1ccccc1)[C@H](O)C(=O)NO", "active"),
    ("CC(C)CN(C[C@@H](O)[C@H](Cc1ccccc1)NC(=O)O[C@H]1CO[C@H]2OCC[C@H]21)S(=O)(=O)c1ccc(N)cc1", "inactive"),
    ("COc1cc(CNC(=O)CCCCC=CC(C)C)ccc1O", "inactive"),
    ("Cc1ccc(C(=O)N(CCCN)[C@@H](c2oc3cc(Cl)ccc3c(=O)c2Cc2ccccc2)C(C)C)cc1", "active"),
    ("C[C@@H]1O[C@@H](O[C@H]2CC[C@@]3(C)[C@H](CC[C@@H]4[C@H]3C[C@@H](O)[C@]3(C)[C@@H](C5=CC(=O)OC5)CC[C@]43O)C2)C[C@H](O)[C@@H]1O[C@H]1C[C@H](O)[C@H](O[C@H]2C[C@H](O)[C@@H](O)[C@@H](C)O2)[C@H](C)O1 (stereo in doubt)", "active"),
    ("Cc1cnc(-c2cc(N3CCN(C(=O)CCS(C)(=O)=O)CC3)ncc2Cl)c(C)c1", "inactive"),
    ("Nc1ccc(-c2ccc3ncc4ccc(=O)n(-c5cccc(C(F)(F)F)c5)c4c3c2)cn1", "active"),
    ("COc1ccc2c(c1)c(C1=C(c3c[nH]c4ccccc34)C(=O)NC1=O)cn2CCCN(C)C", "inactive"),
    ("CO[C@H]1/C=C\\O[C@@]2(C)Oc3c(C)c(O)c4c(O)c(c(C=NN5CCN(C6CCCC6)CC5)c(O)c4c3C2=O)NC(=O)C(C)=CC=C[C@H](C)[C@H](O)[C@@H](C)[C@@H](O)[C@@H](C)[C@H](OC(C)=O)[C@H]1C", "active"),
    ("O=C1NC(=O)C(c2cnc3ccccn23)=C1c1cn2c3c(cccc13)CN(C(=O)N1CCOCC1)CC2", "inactive"),
    ("CC[C@]1(O)C[C@H]2CN(CCC3=c4ccccc4=N[C]3[C@@](C(=O)OC)(c3cc4c(cc3OC)N(C)[C@H]3[C@@](O)(C(N)=O)[C@H](O)[C@]5(CC)C=CCN6CC[C@]43[C@@H]65)C2)C1", "active"),
    ("C=C1[C@H](n2cnc3c(=O)[nH]c(N)nc32)C[C@H](O)[C@H]1CO", "inactive"),
    ("CCC[C@H](Nc1nc(-c2ccc(NC(=O)NCC)c(OC)c2)ncc1C)c1cccnc1", "active"),
    ("CO[C@H]1/C=C\\O[C@@]2(C)Oc3c(C)c(O)c4c(O)c(c5c(nc6cc(C)ccn65)c4c3C2=O)NC(=O)C(C)=CC=C[C@H](C)[C@H](O)[C@@H](C)[C@@H](O)[C@@H](C)[C@H](OC(C)=O)[C@H]1C", "inactive"),
    ("CON(C)C(=O)N1N=C(c2cc(F)ccc2F)S[C@]1(CCCN)c1ccccc1", "active"),
    ("CCC(=O)OCC(=O)[C@@]1(OC(=O)CC)[C@@H](C)C[C@@H]2[C@H]3CCC4=CC(=O)C=C[C@]4(C)[C@@]3(F)[C@@H](O)C[C@@]21C", "inactive"),
    ("COC(=O)[C@H](c1ccccc1Cl)N1CCc2sccc2C1", "inactive"),
    ("CCN(CCO)CCCOc1ccc2c(Nc3cc(CC(=O)Nc4cccc(F)c4)[nH]n3)ncnc2c1", "inactive"),
    ("CCC(c1ccc(O)cc1)C(CC)c1ccc(O)cc1 (stereo not given)", "inactive"),
    ("CSc1cccc(Nc2ncc3cc(-c4c(Cl)cccc4Cl)c(=O)n(C)c3n2)c1", "active"),
    ("C[C@@H]1C[C@H]2[C@@H]3CCC4=CC(=O)C=C[C@]4(C)[C@@]3(F)[C@@H](O)C[C@]2(C)[C@@]1(O)C(=O)CO", "inactive"),
    ("COC1CCC(C(=O)c2ccc3nc4c(cc3c2)CCCO4)CC1 (stereo not given)", "inactive"),
    ("COc1cc2ncnc(Nc3cc(Br)c(O)c(Br)c3)c2cc1OC", "inactive"),
]
